- Tested on: Escherichia coli
- Measurement protocol: Antibacterial activity against Escherichia coli by broth dilution method
- Assay type: functional
Measured quantity: MIC (µg/mL)
Write the answer as a number in µg/mL, unit excluded.

Returns the measured MIC for the input compound. Input: CC1(C)OC(c2nc(-c3ccccc3)c(-c3ccccc3)n2-c2ccc(F)cc2)[C@H]([C@@H](O)[C@H]2COC(C)(C)O2)O1 (stereo partly specified)
75

Dear colleague, I am looking for the recorded MIC of the following compound: Cc1ccc(-n2c([C@H]3COC(C)(C)O3)nc(-c3ccccc3)c2-c2ccccc2)cc1
75

Requested field: MIC. Item: Cc1cccc(-n2c(C3OC(C)(C)O[C@H]3[C@@H](O)[C@H]3COC(C)(C)O3)nc(-c3ccccc3)c2-c2ccccc2)c1 (stereo partly specified)
75

What MIC value was documented for this compound, Cc1ccc(-n2c(C3OC(C)(C)O[C@H]3[C@@H](O)[C@H]3COC(C)(C)O3)nc(-c3ccccc3)c2-c2ccccc2)cc1 (stereo partly specified) ?
75

# MIC lookup, item Cc1ccc(-n2c([C@H]3O[C@@H]4OC(C)(C)O[C@@H]4[C@H]4OC(C)(C)O[C@H]43)nc(-c3ccccc3)c2-c2ccccc2)cc1
75

Returns the measured MIC for the input compound. Input: CC1(C)O[C@H]2O[C@H](c3nc(-c4ccccc4)c(-c4ccccc4)n3Cc3ccccc3)[C@H](O)[C@H]2O1
150

---

Record form. Attribute: MIC. Fill in for each entry.
- System: Pseudomonas aeruginosa
- Measurement protocol: Antibacterial activity against Pseudomonas aeruginosa by broth dilution method
- Assay type: functional
Respond numerically; units are µg/mL and should not be typed.

Which MIC value is on record for Cc1ccc(-n2c([C@H]3O[C@@H]4OC(C)(C)O[C@@H]4[C@H]4OC(C)(C)O[C@H]43)nc(-c3ccccc3)c2-c2ccccc2)cc1 ?
75

Which MIC value is on record for CC1(C)OC(c2nc(-c3ccccc3)c(-c3ccccc3)n2-c2ccc(F)cc2)[C@H]([C@@H](O)[C@H]2COC(C)(C)O2)O1 (stereo partly drawn) ?
75

Sample CC1(C)OC(c2nc(-c3ccccc3)c(-c3ccccc3)n2Cc2ccccc2)[C@H]([C@@H](O)[C@H]2COC(C)(C)O2)O1 (stereo partly drawn) — what was its MIC?
37.5

---

For each of the molecules below, state its MIC.
- Tested on: Pseudomonas aeruginosa
- Measurement protocol: Antibacterial activity against Pseudomonas aeruginosa by broth dilution method
- Format: functional
Give the value in µg/mL but do not write µg/mL after it.

Given the entry OC[C@@H](O)[C@@H](O)[C@@H](O)[C@H](O)c1nc(-c2ccccc2)c(-c2ccccc2)n1Cc1ccccc1 , what MIC was observed with Pseudomonas aeruginosa?
75

Could you share what MIC was measured for CC1(C)O[C@H]2O[C@H](c3nc(-c4ccccc4)c(-c4ccccc4)n3Cc3ccccc3)[C@H](O)[C@H]2O1 , tested on Pseudomonas aeruginosa?
37.5

Request body: readout MIC, system Pseudomonas aeruginosa, query Cc1cccc(-n2c(C3OC(C)(C)O[C@H]3[C@@H](O)[C@H]3COC(C)(C)O3)nc(-c3ccccc3)c2-c2ccccc2)c1 (some centres not stated) . Return the value.
37.5

Give the reported MIC for CN[C@@H]1[C@H](O[C@H]2[C@H](O[C@H]3[C@H](O)[C@@H](O)[C@H](N=C(N)N)[C@@H](O)[C@@H]3N=C(N)N)O[C@@H](C)[C@]2(O)C=O)O[C@@H](CO)[C@H](O)[C@H]1O (stereo in doubt) (system: Pseudomonas aeruginosa).
3.12

Give recorded MIC with Pseudomonas aeruginosa for the following molecule: CC1(C)OC[C@H](c2nc(-c3ccccc3)c(-c3ccccc3)n2-c2ccc(F)cc2)O1
37.5

Lab request: please report MIC under test system Pseudomonas aeruginosa for Cc1ccc(-n2c(C3OC(C)(C)O[C@H]3[C@@H](O)[C@H]3COC(C)(C)O3)nc(-c3ccccc3)c2-c2ccccc2)cc1 (some centres not stated)
75

Find the measured MIC: item Cc1ccc(-n2c([C@H]3COC(C)(C)O3)nc(-c3ccccc3)c2-c2ccccc2)cc1 , target or system Pseudomonas aeruginosa.
150
